- Tested on: Human embryonic neural stem cells
- Test Name: colony-form frequency in human embryonic neural stem cells
- Format: cell-based
- Measurement Conditions: 1 μM
Metric Name: frequency of colonies of NSC vs control group at 6 weeks (in words)

CN1C(=O)[C@H](O)[C@H]([C@@H](O)c2ccccc2)[C@@H]1c1ccccc1 [(+)epineoclausenamide, 3R4S5R6R(+)epineoclausen amide]
not any difference
CN1C(=O)[C@@H](O)[C@@H]([C@H](O)c2ccccc2)[C@H]1c1ccccc1 [(−)epineoclausenamide, 3S4R5S6S(−)epineoclausenamide]
significantly difference
CN1C(=O)[C@H](O)[C@@H]([C@@H](O)c2ccccc2)[C@H]1c1ccccc1 [(+)cisneoclausenamide, 3R4R5S6R (+)cisneoclausenamide]
not any difference
CN1C(=O)[C@@H](O)[C@H]([C@H](O)c2ccccc2)[C@@H]1c1ccccc1 [(−)cisneoclausenamide, 3S4S5R6S (−)cisneoclausenamide]
significantly difference

====

- Test system: dentate gyrus of hippocampus
- Test Name: induction of LTP in hippocampal of rat (population spike amplitude)
- Format: in vivo, SD rats
- Measurement Conditions: I.C.V.; means ± SD
Metric Name: PSA (%), 30 min
// unit must come after the numeric part

Take a look at these entries with their results.
CN1C(=O)[C@H](O)[C@H]([C@H](O)c2ccccc2)[C@H]1c1ccccc1 [(+)epiclausenamide, 3R4S5S6S (+)epiclausenamide]
147.5 ± 15.0%
CN1C(=O)[C@@H](O)[C@H]([C@@H](O)c2ccccc2)[C@H]1c1ccccc1 [(+)cisclausenamide, 3S4S5S6R (+)cisclausenamide]
102.9 ± 5.9%
CN1C(=O)[C@H](O)[C@@H]([C@H](O)c2ccccc2)[C@@H]1c1ccccc1 [(−)cisclausenamide, 3R4R5R6S (−)cisclausenamide]
141.2 ± 8.6%
CN1C(=O)[C@@H](O)[C@H](c2ccccc2)[C@@H]1[C@@H](O)c1ccccc1 [(−)clausenamide, 3S, 4R, 5R, 6S (−) Levoclausenamide]
138.5 ± 8.9%
CN1C(=O)[C@@H](O)[C@@H]([C@@H](O)c2ccccc2)[C@@H]1c1ccccc1 [(−)epiclausenamide, 3S4R5R6R (−)epiclausenamide]
91.2 ± 22.5%
CN1C(=O)[C@@H](O)[C@H]([C@H](O)c2ccccc2)[C@@H]1c1ccccc1 [(−)cisneoclausenamide, 3S4S5R6S (−)cisneoclausenamide]
98.2 ± 6.6%

Consider the compound shown here: CN1C(=O)[C@H](O)[C@@H]([C@@H](O)c2ccccc2)[C@H]1c1ccccc1 [(+)cisneoclausenamide, 3R4R5S6R (+)cisneoclausenamide] What is its recorded PSA (%), 30 min? 150.9 ± 19.9%

Value source: patent US6787564B2
